tgt: furin, P09958
Sequence (P09958 whole entry): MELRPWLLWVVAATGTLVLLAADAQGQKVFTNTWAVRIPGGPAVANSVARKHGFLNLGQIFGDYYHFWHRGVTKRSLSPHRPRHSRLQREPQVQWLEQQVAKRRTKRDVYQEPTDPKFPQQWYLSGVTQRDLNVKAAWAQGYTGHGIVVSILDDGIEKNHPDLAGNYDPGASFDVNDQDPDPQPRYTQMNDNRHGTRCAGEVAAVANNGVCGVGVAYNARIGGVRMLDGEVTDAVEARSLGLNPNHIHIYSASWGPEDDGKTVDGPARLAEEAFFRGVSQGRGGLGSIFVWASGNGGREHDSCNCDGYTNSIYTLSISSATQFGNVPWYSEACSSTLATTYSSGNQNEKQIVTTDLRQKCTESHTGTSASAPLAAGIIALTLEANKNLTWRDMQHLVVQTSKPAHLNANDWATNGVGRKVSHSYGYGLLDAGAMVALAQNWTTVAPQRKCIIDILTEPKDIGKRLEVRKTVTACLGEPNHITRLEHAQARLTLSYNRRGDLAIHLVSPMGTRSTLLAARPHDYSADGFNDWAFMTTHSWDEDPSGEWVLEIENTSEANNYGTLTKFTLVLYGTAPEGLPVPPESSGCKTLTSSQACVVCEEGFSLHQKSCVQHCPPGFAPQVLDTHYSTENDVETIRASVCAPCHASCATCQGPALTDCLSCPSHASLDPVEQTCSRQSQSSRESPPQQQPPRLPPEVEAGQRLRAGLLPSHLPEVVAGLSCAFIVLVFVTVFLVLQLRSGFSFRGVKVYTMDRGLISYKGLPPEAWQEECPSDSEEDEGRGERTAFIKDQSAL
assayOverview: furin cleavage Z-score vs untreated control; higher = more cleavage, active = 3.5 or more, inactive = 1 or less, 8 variable residues between constant flanks;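 also: purified furin at 1:10 enzyme:substrate in 50 mM HEPES pH 7.5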
assaySetup: 30 min
Some of the results follow. The hit rate among all sequences tested is not known here.
I'd be grateful if you could share measured furin cleavage Z-score for these entries.
Numbers only.

| seq | resultNumber |
| --- | --- |
| CAQMVIIKLGAGNASASA [HC628] | 0.271 |

I need furin cleavage Z-score for every entry listed below, if you could help.
1. CALSAFSLHSAGNASASA [HC1605]
2. CAQLLRKKRPAGNASASA [FS-479]
3. CAEVVTSHWVAGNASASA [HC2215]

[1.75, 4.39, 0.171]

I need furin cleavage Z-score for every entry listed below, if you could help.
1. CAEVVTSTSVAGNASASA [HC2237]
2. CAVDCCSMSYAGNASASA [HC2011]

1. -1.09
2. 0.379

I need furin cleavage Z-score for every entry listed below, if you could help.
1. CALSRRSIRSAGNASASA [FS-461]
2. CAEIPCHRPSAGNASASA [HC2324]
3. CAMSIRSDRSAGNASASA [FS-1646]
4. CATTPCEGSWAGNASASA [HC73]
5. CAELLRKKRTAGNASASA [FS-991]
6. CAVHFRSIRSAGNASASA [FS-308]

1. 9.32
2. -0.381
3. 1.58
4. 0.0884
5. 6.38
6. 5.71

I need furin cleavage Z-score for every entry listed below, if you could help.
1. CALDRRSQRSAGNASASA [FS-910]
2. CARRKRAKVEAGNASASA [FS-3051]
3. CAEVGCHRPSAGNASASA [HC2356]

4.23
7.03
0.483

Entry source: the supplement of paper PMC3545927
